Tested Target: CDK12 complexed with Cyclin K (Homo sapiens)
Construct: GST (N)
Sequence (Q9NYV4 whole entry): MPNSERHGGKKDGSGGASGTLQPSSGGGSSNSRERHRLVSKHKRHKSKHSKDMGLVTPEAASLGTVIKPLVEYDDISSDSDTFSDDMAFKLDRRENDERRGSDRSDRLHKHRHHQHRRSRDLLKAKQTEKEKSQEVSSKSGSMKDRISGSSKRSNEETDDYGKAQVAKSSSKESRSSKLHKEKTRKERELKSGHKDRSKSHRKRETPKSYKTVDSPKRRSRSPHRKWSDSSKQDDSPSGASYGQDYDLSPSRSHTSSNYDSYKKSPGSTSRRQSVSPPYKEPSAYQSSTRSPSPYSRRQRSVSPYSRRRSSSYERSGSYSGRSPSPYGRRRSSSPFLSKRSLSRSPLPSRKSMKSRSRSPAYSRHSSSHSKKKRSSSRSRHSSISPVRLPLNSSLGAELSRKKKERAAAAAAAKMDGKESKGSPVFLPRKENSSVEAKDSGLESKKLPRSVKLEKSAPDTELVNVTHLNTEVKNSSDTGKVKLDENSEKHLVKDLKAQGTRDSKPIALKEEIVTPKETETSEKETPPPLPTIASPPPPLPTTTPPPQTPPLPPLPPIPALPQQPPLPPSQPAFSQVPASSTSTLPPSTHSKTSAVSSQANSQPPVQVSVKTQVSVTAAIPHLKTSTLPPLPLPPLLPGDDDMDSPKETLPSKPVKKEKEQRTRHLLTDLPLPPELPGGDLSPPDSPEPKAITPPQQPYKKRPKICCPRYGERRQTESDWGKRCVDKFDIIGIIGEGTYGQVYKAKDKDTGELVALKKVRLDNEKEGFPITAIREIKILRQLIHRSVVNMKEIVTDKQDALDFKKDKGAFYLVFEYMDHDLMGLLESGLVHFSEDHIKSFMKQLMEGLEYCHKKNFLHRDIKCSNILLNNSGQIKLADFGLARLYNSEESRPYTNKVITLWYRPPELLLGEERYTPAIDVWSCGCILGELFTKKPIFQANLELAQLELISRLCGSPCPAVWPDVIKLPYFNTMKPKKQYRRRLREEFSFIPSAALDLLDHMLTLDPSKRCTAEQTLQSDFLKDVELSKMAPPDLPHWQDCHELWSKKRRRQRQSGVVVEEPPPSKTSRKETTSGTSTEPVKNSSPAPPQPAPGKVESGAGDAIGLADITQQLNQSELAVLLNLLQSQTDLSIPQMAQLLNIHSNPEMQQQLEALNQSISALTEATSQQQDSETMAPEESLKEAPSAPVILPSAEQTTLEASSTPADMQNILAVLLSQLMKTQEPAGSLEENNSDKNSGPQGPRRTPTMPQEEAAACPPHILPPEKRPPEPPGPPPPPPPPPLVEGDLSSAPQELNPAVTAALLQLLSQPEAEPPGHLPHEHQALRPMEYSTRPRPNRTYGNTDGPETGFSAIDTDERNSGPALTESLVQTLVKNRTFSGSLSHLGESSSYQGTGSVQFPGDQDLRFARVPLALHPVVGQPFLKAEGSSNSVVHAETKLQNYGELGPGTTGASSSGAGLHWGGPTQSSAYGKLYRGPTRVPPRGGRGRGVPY
Sequence (O75909 whole entry partner): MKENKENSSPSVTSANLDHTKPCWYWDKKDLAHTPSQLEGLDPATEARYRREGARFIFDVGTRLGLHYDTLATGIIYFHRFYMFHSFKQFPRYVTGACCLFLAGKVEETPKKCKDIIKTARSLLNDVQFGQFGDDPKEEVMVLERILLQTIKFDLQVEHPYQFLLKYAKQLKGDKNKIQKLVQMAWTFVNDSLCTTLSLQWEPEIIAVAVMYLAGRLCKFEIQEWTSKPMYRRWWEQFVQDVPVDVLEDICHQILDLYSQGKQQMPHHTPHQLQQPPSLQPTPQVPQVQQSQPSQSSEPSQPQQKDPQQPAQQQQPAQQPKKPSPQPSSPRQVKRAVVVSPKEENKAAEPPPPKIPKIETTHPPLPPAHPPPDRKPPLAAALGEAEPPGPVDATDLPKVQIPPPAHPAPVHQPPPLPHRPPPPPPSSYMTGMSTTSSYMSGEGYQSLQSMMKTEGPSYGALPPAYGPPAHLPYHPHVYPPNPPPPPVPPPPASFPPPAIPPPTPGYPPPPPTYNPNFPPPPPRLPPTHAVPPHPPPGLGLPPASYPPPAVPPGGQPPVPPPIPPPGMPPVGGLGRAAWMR
Experiment Description: Alternative CDK Enzymatic Assays (HTRF, pre-incubation with compounds and 1 mM ATP), Example A2
Format: biochemical
Run Conditions: enzyme pre-incubated with compounds and 1 mM ATP for 60 minutes; reaction 120 minutes at 25° C.
pIC50: −log10 of the molar value.
Attribute: pIC50

Exercise: // lookup pIC50 | system=CDK12 complexed with Cyclin K (Homo sapiens) | key= C=CC(=O)Nc1cc2nc(N3C[C@H](F)C[C@@H](Nc4ncc(C(F)(F)F)cn4)C3)n(C)c2cc1N1CCCC1
Solution: > 7.30

Exercise: What value of pIC50 on CDK12 complexed with Cyclin K (Homo sapiens) does C=CC(=O)N[C@@H]1CCN(c2nccn3c(N4C[C@H](F)C[C@@H](Nc5ncc(C(F)(F)F)cn5)C4)ncc23)C1 have?
Solution: 6.30 to 7.30

Exercise: Param readout= pIC50; system= CDK12 complexed with Cyclin K (Homo sapiens); entry= C=CC(=O)Nc1ccc2c(c1)nc(N1CCC[C@@H](Nc3ncc(C#N)s3)C1)n2C ; returns value.
Solution: > 7.30

Exercise: Lookup: pIC50 / CDK12 complexed with Cyclin K (Homo sapiens) / C=CC(=O)Nc1c(C)cc2c(nc(N3C[C@H](F)C[C@@H](Nc4ncc(C(F)(F)F)cn4)C3)n2C)c1Br
Solution: 6.30 to 7.30

Exercise: What value of pIC50 on CDK12 complexed with Cyclin K (Homo sapiens) does C=CC(=O)Nc1cc2nc(N3C[C@H](F)C[C@@H](Nc4ccc(C(F)(F)F)cn4)C3)n(C)c2cc1C have?
Solution: 6.30 to 7.30

Exercise: Identify the measured pIC50 of CC#CC(=O)N1C[C@@H]2C[C@H]1CN2c1nccn2c(N3C[C@H](F)C[C@@H](Nc4ncc(C(F)(F)F)cn4)C3)ncc12 for CDK12 complexed with Cyclin K (Homo sapiens).
Solution: 6.30 to 7.30

Exercise: API: value(readout= pIC50, system= CDK12 complexed with Cyclin K (Homo sapiens), query= C=C(F)C(=O)Nc1cc2nc(N3C[C@H](F)C[C@@H](Nc4ncc(C(F)(F)F)cn4)C3)n(C)c2cc1C )
Solution: 6.30 to 7.30
